tested.target: androgen receptor (rat ventral prostate cytosol) (Rattus norvegicus, UniProt P15207)
Construct: from tissue; host or cells: ventral prostate cytosol of castrated male Sprague Dawley or Wistar rats
Sequence (P15207 1-902): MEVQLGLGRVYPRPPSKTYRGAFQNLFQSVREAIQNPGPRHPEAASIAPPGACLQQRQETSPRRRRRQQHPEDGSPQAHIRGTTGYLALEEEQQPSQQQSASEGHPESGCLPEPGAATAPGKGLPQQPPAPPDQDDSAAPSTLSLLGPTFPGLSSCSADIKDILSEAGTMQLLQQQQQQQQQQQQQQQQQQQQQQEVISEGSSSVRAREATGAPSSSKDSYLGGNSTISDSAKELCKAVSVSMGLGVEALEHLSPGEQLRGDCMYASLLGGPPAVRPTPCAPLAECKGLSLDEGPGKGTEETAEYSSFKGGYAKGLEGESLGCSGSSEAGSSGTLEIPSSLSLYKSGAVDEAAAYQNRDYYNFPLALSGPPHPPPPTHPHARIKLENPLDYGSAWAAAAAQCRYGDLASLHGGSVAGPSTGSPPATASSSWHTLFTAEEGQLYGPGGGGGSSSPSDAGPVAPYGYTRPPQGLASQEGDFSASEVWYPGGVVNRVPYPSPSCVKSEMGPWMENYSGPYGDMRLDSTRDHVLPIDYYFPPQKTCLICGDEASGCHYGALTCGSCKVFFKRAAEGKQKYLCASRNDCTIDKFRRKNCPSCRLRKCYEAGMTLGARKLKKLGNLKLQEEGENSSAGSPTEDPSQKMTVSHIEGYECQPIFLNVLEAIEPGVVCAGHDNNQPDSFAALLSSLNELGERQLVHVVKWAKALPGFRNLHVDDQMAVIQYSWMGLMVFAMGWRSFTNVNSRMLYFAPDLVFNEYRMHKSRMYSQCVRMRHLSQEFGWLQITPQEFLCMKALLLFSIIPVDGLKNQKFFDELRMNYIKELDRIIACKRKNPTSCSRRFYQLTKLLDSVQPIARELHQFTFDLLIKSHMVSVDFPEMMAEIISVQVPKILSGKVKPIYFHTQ
procedure.summary: Androgen Receptor Binding Using Rat Ventral Prostate Cytosol
measurement.context: Concentration 3000 nM
observation.type: inhibition at 3 µM (%)
The reply should be a number in %, with the unit left off.

query: I am curious: what inhibition at 3 µM value has been reported for CC(O)(CSc1ccc(O)cc1)c1cc2cc(Cl)c(C(F)(F)F)cc2[nH]1 (stereo not drawn) ?
result: 130

query: I am curious: what inhibition at 3 µM value has been reported for CSCCC(C)(O)c1cc2cc([N+](=O)[O-])c(C(F)(F)F)cc2[nH]1 (stereo not drawn) ?
result: 81

query: I am curious: what inhibition at 3 µM value has been reported for CC(O)(CS(=O)(=O)c1ccc(O)cc1)c1cc2cc(Cl)c(C(F)(F)F)cc2[nH]1 (stereo not drawn) ?
result: 86

query: I am curious: what inhibition at 3 µM value has been reported for CCSCC(C)(O)c1cc2cc([N+](=O)[O-])c(C(F)(F)F)cc2n1C (racemic) ?
result: 52

query: I am curious: what inhibition at 3 µM value has been reported for CCSCC(C)(O)c1cc2cc([N+](=O)[O-])c(C(F)(F)F)cc2[nH]1 (racemic) ?
result: 92

query: I am curious: what inhibition at 3 µM value has been reported for CC(O)(CS(=O)(=O)c1ccc(N)cc1)c1cc2cc(Cl)c(C(F)(F)F)cc2[nH]1 (stereo not drawn) ?
result: 80.5

Where these numbers come from: patent US7282507B2
